target: UniProtKB P09871; test: Human C1s enzyme assay; type: biochemical; details: Human complement C1s enzyme 1.16 nM, substrate Z-L-Lys-SBzl 100 μM, assay of Example 3; read-out: IC50 (Stars)
pIC50: −log10 of the molar value.
compounds and their reported pIC50

Worked cases, pIC50 given:
# COMPOUND, RESULT
rows = [
    ("COC[C@@]1(F)C[C@@H](C(=O)N[C@H](C)c2cc(C(=N)N)cs2)N(C(=O)CNC(=O)c2ccc3c(c2)sc2ccccc23)C1 [Compound 343]", "> 7.00"),
    ("C[C@@H](NC(=O)[C@@H]1C[C@]2(C)C[C@@H]2N1C(=O)CNC(=O)c1ccc(Oc2ccccc2)cc1)c1cc(CC(=N)N)cs1 [Compound 276]", "> 7.00"),
]

Next up:
What value of pIC50 on UniProtKB P09871 does COC[C@@]1(F)C[C@@H](C(=O)N[C@H](C)c2cc(C(=N)N)cs2)N(C(=O)CNC(=O)c2ccc3c(c2)S(=O)(=O)c2ccccc2-3)C1 [Compound 350] have? > 7.00

---

molecular target: Human complement C1s enzyme (Homo sapiens (Human)); assay: Human C1s enzyme assay; type: biochemical; details: Human C1s enzyme assay of Example 3; read-out: IC50 (Stars)
pIC50: −log10 of the molar value.
PARAMETER: pIC50

Would you mind telling me what pIC50 value was observed for `C[C@@H](NC(=O)[C@@H]1C[C@]2(C)C[C@@H]2N1C(=O)CNC(=O)c1ccc(Oc2ccc(F)cc2)cc1)c1cc(C(=N)N)cs1` ? > 7.00

Next entry: C[C@@H](NC(=O)[C@@H]1CC2(CN1C(=O)CNC(=O)c1ccc3c(c1)-c1ccccc1C3O)OCCO2)c1cc(C(=N)N)cs1 (stereo partly drawn) > 7.00

Now try `O=C(NCC(=O)N1CC2(C[C@H]1C(=O)NCc1cc(NC3=NCCCN3)cs1)OCCO2)c1ccc(Oc2ccc(F)cc2)cc1` . < 6.00

Now consider CC(NC(=O)[C@@H]1C[C@@H](Oc2ccccc2)CN1C(=O)CNC(=O)c1ccc2c(c1)-c1ccccc1C2(F)F)c1cc(C(=N)N)cs1 (stereo in doubt) and answer again. > 7.00

Entry to check: `COC[C@@]1(F)C[C@@H](C(=O)N[C@H](C)c2cc(C(=N)N)cs2)N(C(=O)CNC(=O)c2ccc3c(c2)-c2ccccc2C3(F)F)C1` > 7.00

Now consider `N=C(N)c1csc(CNC(=O)[C@@H]2CC3(CN2C(=O)CNC(=O)c2ccc(-c4ccccc4)cc2F)OCCO3)c1` . > 7.00

---

biological target: Human complement C1s enzyme (Homo sapiens (Human), UniProt P09871); assay: Human C1s enzyme assay; assay type: biochemical; conditions: Human C1s enzyme assay of Example 3; read-out: IC50 (Stars)
Sequence (P09871 438-688 limits assumed): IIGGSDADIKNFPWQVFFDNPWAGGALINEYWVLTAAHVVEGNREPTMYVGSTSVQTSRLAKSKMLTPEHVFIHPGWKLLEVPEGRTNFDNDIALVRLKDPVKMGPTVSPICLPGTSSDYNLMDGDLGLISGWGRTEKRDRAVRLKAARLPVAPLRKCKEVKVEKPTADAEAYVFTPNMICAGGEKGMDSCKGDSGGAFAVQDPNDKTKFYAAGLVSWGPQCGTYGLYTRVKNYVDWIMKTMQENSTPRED
Sequence (P09871 16-437 partner limits assumed): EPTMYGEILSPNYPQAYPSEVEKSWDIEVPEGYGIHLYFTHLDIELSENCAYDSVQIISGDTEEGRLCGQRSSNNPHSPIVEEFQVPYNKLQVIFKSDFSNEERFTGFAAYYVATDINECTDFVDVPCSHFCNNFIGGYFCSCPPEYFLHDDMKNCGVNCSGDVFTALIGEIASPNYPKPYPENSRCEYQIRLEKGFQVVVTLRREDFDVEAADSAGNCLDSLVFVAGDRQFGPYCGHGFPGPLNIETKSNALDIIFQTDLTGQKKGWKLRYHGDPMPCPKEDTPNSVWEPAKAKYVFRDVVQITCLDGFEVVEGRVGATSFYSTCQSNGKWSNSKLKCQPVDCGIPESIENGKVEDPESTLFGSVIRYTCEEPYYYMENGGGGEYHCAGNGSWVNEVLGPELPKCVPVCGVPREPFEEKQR
The compounds listed here are annotated with their IC50.

Requested read-out IC50, target or system Human complement C1s enzyme (Homo sapiens (Human), UniProt P09871), entry COC[C@@H]1C[C@@H](C(=O)N[C@H](C)c2cc(C(=N)N)cs2)N(C(=O)CNC(=O)c2ccc(Oc3ccc(F)cc3)cc2)C1 (relative stereo) [Compound 79] < 100 nM

Further, for C[C@@H](NC(=O)[C@@H]1C[C@@H](OC(F)F)CN1C(=O)CNC(=O)c1ccc(Oc2ccc(Cl)cc2)cc1)c1cc(C(=N)N)cs1 [Compound 43] ? < 100 nM
